As shown below, each of these molecules has a reported inhibition at 10 µM value.
# experimental.target: serotonin (5-HT) reuptake (Rattus norvegicus, UniProt P31652)
# Construct: synaptosomes are freshly isolated from areas of the rat brain; from tissue; host or cells: rat brain synaptosomes (P2 fraction)
# Sequence (P31652 whole entry): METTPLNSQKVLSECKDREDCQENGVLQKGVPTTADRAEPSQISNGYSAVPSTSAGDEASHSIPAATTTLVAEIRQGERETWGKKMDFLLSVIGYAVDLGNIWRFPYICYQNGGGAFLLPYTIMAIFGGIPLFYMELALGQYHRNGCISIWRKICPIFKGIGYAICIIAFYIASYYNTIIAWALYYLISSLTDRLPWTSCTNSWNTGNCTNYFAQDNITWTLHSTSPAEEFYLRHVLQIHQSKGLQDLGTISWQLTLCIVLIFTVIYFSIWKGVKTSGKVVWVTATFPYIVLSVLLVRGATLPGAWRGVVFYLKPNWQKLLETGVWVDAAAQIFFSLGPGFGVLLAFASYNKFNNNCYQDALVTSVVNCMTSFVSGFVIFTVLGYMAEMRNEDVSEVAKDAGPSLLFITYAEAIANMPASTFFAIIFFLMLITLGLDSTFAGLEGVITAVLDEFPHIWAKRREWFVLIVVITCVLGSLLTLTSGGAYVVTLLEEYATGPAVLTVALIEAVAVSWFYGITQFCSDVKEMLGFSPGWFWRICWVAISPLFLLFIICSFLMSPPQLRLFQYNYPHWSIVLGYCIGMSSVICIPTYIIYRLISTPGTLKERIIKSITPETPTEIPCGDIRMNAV
# protocol.notes: Inhibition of serotonin (5HT) reuptake in synaptosomes from rat brain
# Assay type: biochemical
# condition.set: test concentration of 10 μM; read-out: 5-HT (inhibition of reuptake of serotonin, % inhibition)
# Procedure: Binding data of the compounds on the μ opioid receptor and data on the inhibition of reuptake of serotonin (5-HT) are given in Table 1. The data for the μ receptor were measured at a test concentration of 1 μM, and those for the serotonin reuptake at 10 μM. The values are stated in % inhibition. Inhibition of Serotonin (5HT) Reuptake In order to be able to carry out these in vitro studies, synaptosomes are freshly isolated from areas of the rat brain. […]
Write the number in % without appending the unit.

Guide cases for inhibition at 10 µM, answers given:
1) CN(C)C(c1cccc(F)c1)C1CCC(CNC(=O)COCCN(C)S(=O)(=O)c2c(Cl)cc(Cl)cc2Cl)CC1 (stereo not shown)
98
2) CN(C)C(c1ccccc1)C1CCC(CCNC(=O)COCc2ccccc2)CC1 (stereo not shown)
67
3) CN(C)C(c1ccccc1)C1CCC(CNC(=O)COC2CCCN(S(=O)(=O)c3ccccc3)C2)CC1 (stereo not shown)
96

Returns the measured inhibition at 10 µM for the input molecule. Input: COc1ccc(S(=O)(=O)N2CCC(OCC(=O)NCC3CCC(C(c4cccc(F)c4)N(C)C)CC3)C2)cc1OC (stereo not shown)
88

====

# experimental.target: serotonin (5-HT) reuptake (Rattus norvegicus, UniProt P31652)
# Construct: synaptosomes are freshly isolated from areas of the rat brain; from tissue; host or cells: rat brain synaptosomes (P2 fraction)
# protocol.notes: Inhibition of serotonin (5HT) reuptake in synaptosomes from rat brain
# Type: biochemical
# condition.set: test concentration of 10 μM; read-out: 5-HT (inhibition of reuptake of serotonin, % inhibition)
test.readout: inhibition at 10 µM (%)
Write the number in % without appending the unit.

1) CN(C)C(c1ccccc1)C1CCC(CNC(=O)COCCN(C)S(=O)(=O)c2ccc(OC(F)(F)F)cc2)CC1 (centres unmarked)
92
2) COc1ccc(S(=O)(=O)N2CCCCC2COCC(=O)NCC2CCC(C(c3cccc(F)c3)N(C)C)CC2)cc1 (centres unmarked)
92
3) CN(C)C(c1cccs1)C1CCC(CCNC(=O)COC2CCN(S(=O)(=O)c3cccc(C(F)(F)F)c3)C2)CC1 (centres unmarked)
81
4) COc1ccc(S(=O)(=O)N2CCCCC2COCC(=O)NC2CCC(C(c3ccccc3)N(C)C)CC2)c(OC)c1 (centres unmarked)
81
5) CN(C)C(c1ccccc1)C1CCC(CNC(=O)COC2CCN(S(=O)(=O)c3ccc(Cl)cc3)C2)CC1 (centres unmarked)
91
6) CN(C)C(c1ccccc1)C1CCC(CNC(=O)COCCN(C)S(=O)(=O)c2cccc(C(F)(F)F)c2)CC1 (centres unmarked)
93
7) Cc1ccc(S(=O)(=O)N2CCC(OCC(=O)NC3CCC(C(c4cccs4)N(C)C)CC3)C2)cc1 (centres unmarked)
87
8) Cc1ccc(S(=O)(=O)N2CCC(OCC(=O)NCC3CCC(C(c4ccccc4)N(C)C)CC3)C2)cc1 (centres unmarked)
91
9) CN(C)C(c1cccs1)C1CCC(NC(=O)COC2CCN(S(=O)(=O)c3cccc(C(F)(F)F)c3)C2)CC1 (centres unmarked)
86
10) COc1cc(C)c(S(=O)(=O)N2CCC(CCOCC(=O)NCC3CCC(C(c4ccccc4)N(C)C)CC3)CC2)c(C)c1C (centres unmarked)
95

Returns the measured inhibition at 10 µM for the input compound. Input: CC(Oc1ccccc1)C(=O)NCC1CCC(C(c2cccs2)N(C)C)CC1 (centres unmarked)
69

Returns the measured inhibition at 10 µM for the input compound. Input: COc1ccc(S(=O)(=O)N2CCCC2COCC(=O)NCC2CCC(C(c3cccs3)N(C)C)CC2)cc1 (centres unmarked)
95

Returns the measured inhibition at 10 µM for the input compound. Input: CN(C)C(c1cccs1)C1CCC(CCNC(=O)COCCN(C)S(=O)(=O)c2cccc(C(F)(F)F)c2)CC1 (centres unmarked)
97

Returns the measured inhibition at 10 µM for the input compound. Input: CN(C)C(c1cccs1)C1CCC(CCNC(=O)COCCN(C)S(=O)(=O)c2ccc(F)cc2)CC1 (centres unmarked)
98

Returns the measured inhibition at 10 µM for the input compound. Input: CN(C)C(c1ccccc1)C1CCC(NC(=O)COC2CCCN(S(=O)(=O)c3ccccc3)C2)CC1 (centres unmarked)
87

Returns the measured inhibition at 10 µM for the input compound. Input: CN(C)C(c1cccc(F)c1)C1CCC(CCNC(=O)COCCN(C)S(=O)(=O)c2ccc(Cl)cc2)CC1 (centres unmarked)
88

Returns the measured inhibition at 10 µM for the input compound. Input: CN(C)C(c1cccc(F)c1)C1CCC(CCNC(=O)COCCN(C)S(=O)(=O)c2cccc(C(F)(F)F)c2)CC1 (centres unmarked)
94

Origin of values: patent US8106055B2
